- Tested on: DUX4
- assay_info: DUX4 expression downregulation by kinase family inhibitors (Table 1)
- Type: cell-based
- experimental_context: concentration in brackets at which the % DUX4 reduction is given
Entries and their lowest significant [C] values follow.

{"columns": ["structure", "lowest significant [C], µM"],
 "data": [
  ["Cc1ccc(NC(=O)c2ccc(CN3CC[C@H](N(C)C)C3)c(C(F)(F)F)c2)cc1Nc1nccc(-c2cncnc2)n1", 2.08],
  ["COc1cc(Nc2c(C#N)cnc3cc(OCCCN4CCN(C)CC4)c(OC)cc23)c(Cl)cc1Cl", 3],
  ["Cc1ncc(NC(=O)c2ccc(CN3CCN(C)CC3)c(C(F)(F)F)c2)cc1Nc1nccc(-c2cccnc2)n1", 2.08],
  ["Cc1cn(-c2cc(NC(=O)c3ccc(C)c(Nc4nccc(-c5cccnc5)n4)c3)cc(C(F)(F)F)c2)cn1", 5],
  ["Cc1ccc(NC(=O)c2ccc(CN3CC[C@H](N(C)C)C3)c(C(F)(F)F)c2)cc1Nc1ncc(-c2cncnc2)cn1", 0.88]
]}

These measurements were taken from patent US11806343B2.
